- Tested on: OVCAR-8 ovarian
- Test Description: NCI tumour cell line growth inhibition, 48 h
Observable: TGI

Cc1ccc(-n2c(=O)c3nn4c(=O)n(-c5ccc(C)cc5)c(=O)c4nn3c2=O)cc1 :: > 100 µM

Below is a list of compounds. For each, state its recorded TGI.
1. CCOC(=O)C(C)c1c(C(=O)c2ccc(C)nc2)c2ccccc2n1C (stereo not given)
2. COc1ccc(O)c(/C=N/NC(=S)N2CCCCC2)c1
3. C=CCOC(C)n1c(C)cc(=O)n(C(C)OCC=C)c1=O (stereo not given)
4. Cn1ncc(NC(=O)c2nc(-c3c(F)cccc3F)sc2N)c1N1CC[C@@H](N)[C@H](F)CC1
5. C[n+]1c(-c2ccccc2)c2cc(N)ccc2c2ccccc21
6. CC(=O)Oc1c(-c2ccccc2)oc2ccccc12
7. COc1ccc(NC2=NCCO2)c2c1CCCC2
8. CCC[CH2][Sn]1([CH2]CCC)[O]C(=O)c2cccc(C)c2[O]1

["> 100 µM", "> 43.1 µM", "> 100 µM", "37.1 µM", "> 100 µM", "12.5 µM", "> 100 µM", "2.38 µM"]

Value wanted: TGI (OVCAR-8 ovarian) of entry COC1/C=C\C=C(/C)C(=O)NC2=CC(=O)C(N)=C(CC(C)CC(OC)C(O)C(C)C=C(C)C1OC(N)=O)C2=O (stereo not given)
33.9 µM
